System: Escherichia coli TOP10;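 also: peptides expressed intracellularly from a pBAD plasmid library in pooled LB shake-flask culture, induced with 0.3% L-arabinose, DNA abundance read by NGS, three biological replicates, DESeq2 with apeglm shrinkage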
Assay: shrunken log2 fold change of peptide-encoding DNA abundance (4.5 h post-induction vs induction); higher = less antimicrobial activity (less host growth inhibition)
Conditions: time post-induction: 4.5 h; library: site-saturation at positions 5, 18, 19, 20
Would you please tag the item 1.0 when its shrunken log2 fold change is 0.2 or above, and 0.0 when it is below?

Qu. For this sequence, is measured shrunken log2 fold change 0.2 or higher? RRIRWRPPRLPRPRPRPFGCPRP
Ans. 0.0

Qu. For this sequence, is measured shrunken log2 fold change 0.2 or higher? RRIRVRPPRLPRPRPRPAQWPRP
Ans. 0.0

Qu. For this sequence, is measured shrunken log2 fold change 0.2 or higher? RRIRARPPRLPRPRPRPSSEPRP
Ans. 1.0

Qu. For this sequence, is measured shrunken log2 fold change 0.2 or higher? RRIRGRPPRLPRPRPRPEHKPRP
Ans. 1.0

Qu. For this sequence, is measured shrunken log2 fold change 0.2 or higher? RRIRERPPRLPRPRPRPTRLPRP
Ans. 1.0

Qu. For this sequence, is measured shrunken log2 fold change 0.2 or higher? RRIRDRPPRLPRPRPRPSWIPRP
Ans. 0.0

Qu. For this sequence, is measured shrunken log2 fold change 0.2 or higher? RRIRRRPPRLPRPRPRPTGKPRP
Ans. 1.0

Qu. For this sequence, is measured shrunken log2 fold change 0.2 or higher? RRIRPRPPRLPRPRPRPRVAPRP
Ans. 1.0

Qu. For this sequence, is measured shrunken log2 fold change 0.2 or higher? RRIRERPPRLPRPRPRPGYNPRP
Ans. 0.0

Qu. For this sequence, is measured shrunken log2 fold change 0.2 or higher? RRIRGRPPRLPRPRPRPLNFPRP
Ans. 0.0

Qu. For this sequence, is measured shrunken log2 fold change 0.2 or higher? RRIRERPPRLPRPRPRPVKLPRP
Ans. 0.0

Qu. For this sequence, is measured shrunken log2 fold change 0.2 or higher? RRIRERPPRLPRPRPRPCMHPRP
Ans. 0.0

Qu. For this sequence, is measured shrunken log2 fold change 0.2 or higher? RRIRNRPPRLPRPRPRPPYAPRP
Ans. 0.0

Qu. For this sequence, is measured shrunken log2 fold change 0.2 or higher? RRIRCRPPRLPRPRPRPKDAPRP
Ans. 0.0

Qu. For this sequence, is measured shrunken log2 fold change 0.2 or higher? RRIRYRPPRLPRPRPRPMFFPRP
Ans. 0.0

Qu. For this sequence, is measured shrunken log2 fold change 0.2 or higher? RRIRVRPPRLPRPRPRPKREPRP
Ans. 1.0

Qu. For this sequence, is measured shrunken log2 fold change 0.2 or higher? RRIRKRPPRLPRPRPRPYRVPRP
Ans. 0.0

Qu. For this sequence, is measured shrunken log2 fold change 0.2 or higher? RRIRERPPRLPRPRPRPTFIPRP
Ans. 0.0

Qu. For this sequence, is measured shrunken log2 fold change 0.2 or higher? RRIRPRPPRLPRPRPRPITFPRP
Ans. 0.0

Qu. For this sequence, is measured shrunken log2 fold change 0.2 or higher? RRIRKRPPRLPRPRPRPIIWPRP
Ans. 0.0

Qu. For this sequence, is measured shrunken log2 fold change 0.2 or higher? RRIRARPPRLPRPRPRPFVDPRP
Ans. 1.0

Qu. For this sequence, is measured shrunken log2 fold change 0.2 or higher? RRIRIRPPRLPRPRPRPRMKPRP
Ans. 0.0
